- target or system: HDAC4 (Homo sapiens, UniProt P56524)
- Construct: ICE Bioscience Inc. (contract assay provider)
- Sequence (P56524 whole entry): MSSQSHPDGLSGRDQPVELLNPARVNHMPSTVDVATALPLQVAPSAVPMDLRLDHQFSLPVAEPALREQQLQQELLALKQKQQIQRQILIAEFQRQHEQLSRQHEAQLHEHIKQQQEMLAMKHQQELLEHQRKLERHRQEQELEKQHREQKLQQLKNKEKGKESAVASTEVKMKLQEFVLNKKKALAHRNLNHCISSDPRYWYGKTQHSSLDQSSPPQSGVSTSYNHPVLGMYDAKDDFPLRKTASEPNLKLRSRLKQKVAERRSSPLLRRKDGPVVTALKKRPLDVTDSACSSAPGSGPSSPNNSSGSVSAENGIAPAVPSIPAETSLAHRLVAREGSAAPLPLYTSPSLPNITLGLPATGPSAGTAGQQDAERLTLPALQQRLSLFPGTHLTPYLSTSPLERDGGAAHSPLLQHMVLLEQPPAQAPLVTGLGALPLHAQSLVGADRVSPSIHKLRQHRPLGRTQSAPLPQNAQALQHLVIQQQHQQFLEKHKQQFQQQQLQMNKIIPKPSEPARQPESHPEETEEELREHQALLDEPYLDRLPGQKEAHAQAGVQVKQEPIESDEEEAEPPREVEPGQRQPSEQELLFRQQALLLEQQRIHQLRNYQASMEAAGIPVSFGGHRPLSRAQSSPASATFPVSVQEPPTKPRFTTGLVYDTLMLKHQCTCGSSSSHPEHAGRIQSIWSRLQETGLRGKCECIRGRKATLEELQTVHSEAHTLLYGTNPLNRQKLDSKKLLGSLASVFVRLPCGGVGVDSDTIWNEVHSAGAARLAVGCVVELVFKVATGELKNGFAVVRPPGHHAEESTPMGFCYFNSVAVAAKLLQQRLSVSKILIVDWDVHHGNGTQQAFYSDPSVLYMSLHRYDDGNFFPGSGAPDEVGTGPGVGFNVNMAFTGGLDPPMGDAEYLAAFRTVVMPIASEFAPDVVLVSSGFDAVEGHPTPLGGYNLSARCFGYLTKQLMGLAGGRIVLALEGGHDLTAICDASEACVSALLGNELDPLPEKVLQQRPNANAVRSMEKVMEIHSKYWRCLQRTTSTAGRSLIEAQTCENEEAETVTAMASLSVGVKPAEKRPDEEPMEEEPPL
- method: In vitro selectivity assay
- Assay type: biochemical
- cond: selectivity panel
readout label: IC50

Query :: Please provide the recorded IC50 for Cn1cc(-c2cc3cnc(Nc4ccc(-c5cncn5/C=C/C(=O)NO)cc4Cl)cc3n2C(=O)OC(C)(C)C)cn1 , tested on HDAC4 (Homo sapiens, UniProt P56524).
Result :: > 10 µM

* * *

- target or system: BLK (Homo sapiens)
- Construct: ICE Bioscience Inc. (assay service)
- Sequence (P51451 whole entry): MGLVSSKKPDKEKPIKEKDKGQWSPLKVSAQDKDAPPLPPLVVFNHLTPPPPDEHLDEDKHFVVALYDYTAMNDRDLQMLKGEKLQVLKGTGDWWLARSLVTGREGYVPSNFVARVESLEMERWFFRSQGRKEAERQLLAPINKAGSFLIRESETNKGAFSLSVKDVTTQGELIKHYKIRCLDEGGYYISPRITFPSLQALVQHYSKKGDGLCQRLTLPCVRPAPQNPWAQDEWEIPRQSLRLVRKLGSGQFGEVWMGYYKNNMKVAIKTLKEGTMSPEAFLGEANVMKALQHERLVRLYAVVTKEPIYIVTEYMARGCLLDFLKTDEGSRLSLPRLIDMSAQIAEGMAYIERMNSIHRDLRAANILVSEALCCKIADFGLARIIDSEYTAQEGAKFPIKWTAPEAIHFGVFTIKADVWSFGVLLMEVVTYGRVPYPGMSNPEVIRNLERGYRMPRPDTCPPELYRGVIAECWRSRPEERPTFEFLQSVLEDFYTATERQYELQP
- method: In vitro selectivity assay
- Assay type: biochemical
- cond: selectivity panel
readout label: IC50

Query :: Give its IC50 value. Item: Cn1cc(-c2cc3cnc(Nc4ccc(-c5cncn5/C=C/C(=O)NO)cc4Cl)cc3n2C(=O)OC(C)(C)C)cn1
Result :: > 10 µM

* * *

- target or system: LTK (Homo sapiens, UniProt P29376)
- Construct: ICE Bioscience Inc. (contract assay provider)
- method: In vitro selectivity assay
- Format: biochemical
- cond: selectivity panel
readout label: IC50

Query :: Give its IC50 value. Item: Cn1cc(-c2cc3cnc(Nc4ccc(-c5cncn5/C=C/C(=O)NO)cc4Cl)cc3n2C(=O)OC(C)(C)C)cn1
Result :: > 10 µM

* * *

- target or system: EPHA7 (Homo sapiens, UniProt Q15375)
- Construct: ICE Bioscience Inc. (assay service)
- Sequence (Q15375 28-998): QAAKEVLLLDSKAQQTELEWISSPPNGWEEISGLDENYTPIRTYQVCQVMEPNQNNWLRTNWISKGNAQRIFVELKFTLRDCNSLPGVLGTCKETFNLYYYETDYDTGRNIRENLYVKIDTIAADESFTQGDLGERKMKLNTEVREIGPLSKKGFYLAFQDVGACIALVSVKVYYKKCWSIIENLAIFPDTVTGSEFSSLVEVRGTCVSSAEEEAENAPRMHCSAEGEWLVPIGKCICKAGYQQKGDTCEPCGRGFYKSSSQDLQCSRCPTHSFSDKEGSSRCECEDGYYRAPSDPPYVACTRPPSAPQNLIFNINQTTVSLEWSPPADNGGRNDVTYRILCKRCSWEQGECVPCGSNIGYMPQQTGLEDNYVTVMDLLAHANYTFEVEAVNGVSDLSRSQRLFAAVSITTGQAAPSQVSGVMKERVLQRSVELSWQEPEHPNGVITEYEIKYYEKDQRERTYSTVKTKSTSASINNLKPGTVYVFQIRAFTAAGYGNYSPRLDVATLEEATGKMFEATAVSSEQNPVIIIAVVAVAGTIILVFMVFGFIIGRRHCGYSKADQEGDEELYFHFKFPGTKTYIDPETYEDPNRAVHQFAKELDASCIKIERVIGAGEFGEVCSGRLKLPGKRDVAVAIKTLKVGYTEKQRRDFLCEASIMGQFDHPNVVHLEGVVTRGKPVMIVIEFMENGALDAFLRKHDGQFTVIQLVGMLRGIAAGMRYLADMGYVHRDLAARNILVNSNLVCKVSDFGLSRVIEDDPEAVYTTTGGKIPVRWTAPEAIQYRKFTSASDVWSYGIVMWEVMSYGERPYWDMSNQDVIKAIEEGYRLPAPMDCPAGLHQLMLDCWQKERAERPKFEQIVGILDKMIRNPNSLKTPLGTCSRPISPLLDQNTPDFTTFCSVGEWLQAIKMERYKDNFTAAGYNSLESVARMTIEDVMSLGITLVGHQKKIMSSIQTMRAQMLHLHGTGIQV
- method: In vitro selectivity assay
- Type: biochemical
- cond: selectivity panel
readout label: IC50

Query :: Give its IC50 value. Item: Cn1cc(-c2cc3cnc(Nc4ccc(-c5cncn5/C=C/C(=O)NO)cc4Cl)cc3n2C(=O)OC(C)(C)C)cn1
Result :: > 10 µM

* * *

- target or system: EPHA2 (Homo sapiens, UniProt P29317)
- Construct: ICE Bioscience Inc. (assay service)
- Sequence (P29317 24-976): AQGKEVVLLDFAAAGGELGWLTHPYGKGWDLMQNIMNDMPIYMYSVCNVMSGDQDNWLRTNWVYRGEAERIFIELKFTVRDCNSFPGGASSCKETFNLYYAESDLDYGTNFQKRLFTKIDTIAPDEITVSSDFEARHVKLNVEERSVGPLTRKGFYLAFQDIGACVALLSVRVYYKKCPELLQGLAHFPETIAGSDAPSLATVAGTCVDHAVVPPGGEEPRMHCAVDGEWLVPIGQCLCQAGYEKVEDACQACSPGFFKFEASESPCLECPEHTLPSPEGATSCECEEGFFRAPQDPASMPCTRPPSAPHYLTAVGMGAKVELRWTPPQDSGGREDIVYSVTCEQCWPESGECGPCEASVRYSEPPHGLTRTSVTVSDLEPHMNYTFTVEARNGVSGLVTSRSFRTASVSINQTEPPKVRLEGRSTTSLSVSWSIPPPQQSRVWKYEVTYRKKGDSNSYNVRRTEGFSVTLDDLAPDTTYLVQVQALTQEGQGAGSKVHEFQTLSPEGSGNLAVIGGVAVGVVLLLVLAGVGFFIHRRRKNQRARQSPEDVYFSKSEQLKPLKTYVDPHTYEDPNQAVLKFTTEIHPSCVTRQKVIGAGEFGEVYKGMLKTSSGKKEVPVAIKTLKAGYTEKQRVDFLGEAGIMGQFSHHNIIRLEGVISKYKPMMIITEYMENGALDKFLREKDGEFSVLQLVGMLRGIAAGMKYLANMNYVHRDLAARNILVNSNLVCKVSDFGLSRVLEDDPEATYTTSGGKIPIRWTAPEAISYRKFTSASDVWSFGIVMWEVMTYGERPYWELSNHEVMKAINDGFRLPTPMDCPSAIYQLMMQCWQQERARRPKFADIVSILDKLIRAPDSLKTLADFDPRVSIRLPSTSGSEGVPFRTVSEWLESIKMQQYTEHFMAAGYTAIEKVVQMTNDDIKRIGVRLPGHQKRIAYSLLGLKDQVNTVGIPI
- method: In vitro selectivity assay
- Assay type: biochemical
- cond: selectivity panel
- Description: The inhibitory effects of compound MPH-5 on a panel of 68 kinases and other histone deacetylases were evaluated to assess the selectivity profile of MPH-5. This experiment was conducted by ICE Bioscience Inc. (Beijing, China).
readout label: IC50

Query :: Please provide the recorded IC50 for Cn1cc(-c2cc3cnc(Nc4ccc(-c5cncn5/C=C/C(=O)NO)cc4Cl)cc3n2C(=O)OC(C)(C)C)cn1 [MPH-5] , tested on EPHA2 (Homo sapiens, UniProt P29317).
Result :: > 10 µM

* * *

- target or system: FES (Homo sapiens)
- Sequence (P07332 whole entry): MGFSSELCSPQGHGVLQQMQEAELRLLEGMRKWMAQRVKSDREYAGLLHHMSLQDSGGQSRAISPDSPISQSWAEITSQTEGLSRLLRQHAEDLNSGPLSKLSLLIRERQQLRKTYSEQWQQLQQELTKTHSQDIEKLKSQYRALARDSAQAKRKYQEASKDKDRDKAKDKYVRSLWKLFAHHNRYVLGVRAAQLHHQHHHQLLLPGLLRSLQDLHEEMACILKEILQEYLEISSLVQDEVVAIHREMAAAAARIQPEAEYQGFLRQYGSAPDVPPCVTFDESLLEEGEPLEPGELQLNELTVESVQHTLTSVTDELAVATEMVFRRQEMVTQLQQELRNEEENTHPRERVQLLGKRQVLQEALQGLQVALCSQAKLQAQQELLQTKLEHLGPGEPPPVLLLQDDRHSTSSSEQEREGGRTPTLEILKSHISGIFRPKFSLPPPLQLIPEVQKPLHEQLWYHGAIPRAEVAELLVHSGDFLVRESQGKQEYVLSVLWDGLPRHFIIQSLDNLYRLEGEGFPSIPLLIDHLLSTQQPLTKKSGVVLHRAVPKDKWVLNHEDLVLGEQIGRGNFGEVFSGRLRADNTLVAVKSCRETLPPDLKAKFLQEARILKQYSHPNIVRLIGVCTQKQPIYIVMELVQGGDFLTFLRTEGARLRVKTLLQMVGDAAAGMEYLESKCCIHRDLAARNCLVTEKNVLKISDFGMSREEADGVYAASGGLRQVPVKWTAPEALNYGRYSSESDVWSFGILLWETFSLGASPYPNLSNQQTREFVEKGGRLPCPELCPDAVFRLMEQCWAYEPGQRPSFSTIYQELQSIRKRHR
- method: In vitro selectivity assay
- Format: biochemical
- cond: selectivity panel
readout label: IC50

Query :: Please provide the recorded IC50 for Cn1cc(-c2cc3cnc(Nc4ccc(-c5cncn5/C=C/C(=O)NO)cc4Cl)cc3n2C(=O)OC(C)(C)C)cn1 , tested on FES (Homo sapiens).
Result :: > 10 µM

* * *

- method: In vivo pharmacokinetic study
- cond: mouse, plasma, ip; BALB/c mice, i.p., 5 mg/kg; read-out: T1/2 (h), elimination half-life (converted)
readout label: half-life

Query :: Give its half-life value. Item: Cn1cc(-c2cc3cnc(Nc4ccc(-c5cncn5/C=C/C(=O)NO)cc4Cl)cc3n2C(=O)OC(C)(C)C)cn1 [MPH-5]
Result :: 3.46 h

* * *

- target or system: PTK6 (Homo sapiens)
- Construct: ICE Bioscience Inc. (contract assay provider)
- Sequence (Q13882 whole entry): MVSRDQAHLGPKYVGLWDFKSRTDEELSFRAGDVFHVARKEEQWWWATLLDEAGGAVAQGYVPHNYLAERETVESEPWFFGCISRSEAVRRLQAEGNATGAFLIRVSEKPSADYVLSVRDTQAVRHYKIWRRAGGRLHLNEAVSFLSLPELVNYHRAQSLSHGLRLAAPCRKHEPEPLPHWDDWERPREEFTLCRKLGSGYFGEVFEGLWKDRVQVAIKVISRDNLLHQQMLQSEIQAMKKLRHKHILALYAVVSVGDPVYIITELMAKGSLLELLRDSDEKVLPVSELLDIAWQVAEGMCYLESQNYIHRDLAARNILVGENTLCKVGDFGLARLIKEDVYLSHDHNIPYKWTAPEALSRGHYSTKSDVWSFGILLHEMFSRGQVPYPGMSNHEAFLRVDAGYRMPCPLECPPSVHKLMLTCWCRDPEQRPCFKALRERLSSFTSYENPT
- method: In vitro selectivity assay
- Type: biochemical
- cond: selectivity panel
readout label: IC50

Query :: Please provide the recorded IC50 for Cn1cc(-c2cc3cnc(Nc4ccc(-c5cncn5/C=C/C(=O)NO)cc4Cl)cc3n2C(=O)OC(C)(C)C)cn1 [MPH-5] , tested on PTK6 (Homo sapiens).
Result :: > 10 µM
